assay: Competitive molecular glue activity at fluorescein maleimide-labeled FKBP12 C22V/E108C mutant (unknown origin)/6 His-tagged BRD4 BD2 domain (unknown origin) assessed as ternary complex formation by measuring dissociation constant incubated for 30 mins by fluorescence polarization analysis; design: species or system Homo sapiens
test-readout: Kd (µM)
# output: bare number, implied unit µM

Solved cases (2 shown):
C=C[C@@H]1CN(Cc2cn(-c3ccc(N(C)C)cc3)nn2)C(=O)[C@@H]2CCC[C@H]1N2S(=O)(=O)c1cc(Cl)cc(Cl)c1; 115
C=C[C@@H]1CN(Cc2cn(-c3ccc(C(C)=O)cc3)nn2)C(=O)[C@@H]2CCC[C@H]1N2S(=O)(=O)c1cc(Cl)cc(Cl)c1; 47

Requested field: Kd. Item: `C=C[C@@H]1CN(Cc2cn(-c3ccc4[nH]ncc4c3)nn2)C(=O)[C@@H]2CCC[C@H]1N2S(=O)(=O)c1cc(Cl)cc(Cl)c1`
96

Taken from ChEMBL document CHEMBL6134911.
